Molecular target: CFTR-R117H (Homo sapiens, UniProt P13569, R117H)
Sequence (P13569 whole entry R117H): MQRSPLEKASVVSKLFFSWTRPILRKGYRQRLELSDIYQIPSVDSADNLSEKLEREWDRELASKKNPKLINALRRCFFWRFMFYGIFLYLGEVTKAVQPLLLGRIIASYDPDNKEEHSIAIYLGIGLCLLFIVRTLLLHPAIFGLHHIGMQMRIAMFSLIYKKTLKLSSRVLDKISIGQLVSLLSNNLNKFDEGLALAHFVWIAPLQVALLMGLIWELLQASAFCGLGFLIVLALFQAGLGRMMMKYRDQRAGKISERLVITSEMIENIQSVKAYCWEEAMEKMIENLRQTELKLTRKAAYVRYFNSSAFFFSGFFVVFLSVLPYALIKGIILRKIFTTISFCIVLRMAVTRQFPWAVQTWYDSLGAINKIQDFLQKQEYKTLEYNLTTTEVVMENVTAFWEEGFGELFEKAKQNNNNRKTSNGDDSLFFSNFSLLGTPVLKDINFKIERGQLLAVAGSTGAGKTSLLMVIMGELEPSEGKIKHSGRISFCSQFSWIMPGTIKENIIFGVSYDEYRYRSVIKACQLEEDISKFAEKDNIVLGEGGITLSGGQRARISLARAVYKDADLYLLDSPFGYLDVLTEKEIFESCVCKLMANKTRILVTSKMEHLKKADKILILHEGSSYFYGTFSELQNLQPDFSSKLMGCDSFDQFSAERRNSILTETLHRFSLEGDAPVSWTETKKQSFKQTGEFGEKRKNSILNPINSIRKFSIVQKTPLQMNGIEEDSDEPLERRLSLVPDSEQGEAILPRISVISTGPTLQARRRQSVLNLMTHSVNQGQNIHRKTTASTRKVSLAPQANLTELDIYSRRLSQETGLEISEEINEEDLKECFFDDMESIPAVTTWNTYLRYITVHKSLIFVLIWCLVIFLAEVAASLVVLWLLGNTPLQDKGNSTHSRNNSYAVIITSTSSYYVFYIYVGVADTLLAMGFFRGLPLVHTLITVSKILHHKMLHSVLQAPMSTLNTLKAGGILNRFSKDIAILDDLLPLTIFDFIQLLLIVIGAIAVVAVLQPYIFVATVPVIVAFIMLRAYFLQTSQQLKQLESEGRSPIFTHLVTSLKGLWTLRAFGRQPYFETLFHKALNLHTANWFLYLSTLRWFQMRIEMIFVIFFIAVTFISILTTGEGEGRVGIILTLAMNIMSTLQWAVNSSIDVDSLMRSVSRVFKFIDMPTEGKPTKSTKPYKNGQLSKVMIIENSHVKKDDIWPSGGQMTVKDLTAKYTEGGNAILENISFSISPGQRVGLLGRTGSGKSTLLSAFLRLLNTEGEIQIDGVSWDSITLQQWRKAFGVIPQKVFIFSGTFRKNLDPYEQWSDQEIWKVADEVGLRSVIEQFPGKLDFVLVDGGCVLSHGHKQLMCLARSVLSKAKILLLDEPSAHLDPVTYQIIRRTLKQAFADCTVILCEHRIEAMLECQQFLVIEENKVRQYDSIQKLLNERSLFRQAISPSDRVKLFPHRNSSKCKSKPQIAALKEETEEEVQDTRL
Assay: YFP-halide influx assay for the CFTR-R117H
Conditions: CFTR-R117H mutant; read-out: EC50 measured by YFP-halide influx assay for the CFTR-R117H
test readout: EC50 (µM)

As a guide, the following entries are already answered.
# compound, measurement target, measurement units, EC50
measured = [
    ("CC1(C)Cc2c(sc(NC(=O)c3n[nH]cc3Br)c2C(N)=O)C(C)(C)O1", "CFTR-R117H (Homo sapiens, UniProt P13569, R117H)", "µM", 0.165),
    ("CC1(C)Cc2c(sc(NC(=O)C3(CO)CC3)c2C(N)=O)C(C)(C)O1", "CFTR-R117H (Homo sapiens, UniProt P13569, R117H)", "µM", 0.433),
    ("CC(C)(C)CC(O)C(=O)Nc1sc2c(c1C(N)=O)CC(C)(C)OC2(C)C (centres unmarked) [Compound 106]", "CFTR-R117H (Homo sapiens, UniProt P13569, R117H)", "µM", 0.0117),
]

1: CC1(C)Cc2c(sc(NC(=O)[C@@H](O)CC3CC3)c2C(N)=O)C(C)(C)O1
2: COCCOc1cc(C(=O)Nc2sc3c(c2C(N)=O)CC(C)(C)OC3(C)C)n[nH]1
3: CC1(C)Cc2c(sc(NC(=O)c3n[nH]cc3C3=COCCO3)c2C(N)=O)C(C)(C)O1
4: CC1(C)Cc2c(sc(NC(=O)C(O)C(C)(C)C)c2C(N)=O)C(C)(C)O1 (centres unmarked)
5: CC1(C)Cc2c(sc(NC(=O)[C@@H](O)C(C)(C)C)c2C(N)=O)C(C)(C)O1
Order the entries by their reported EC50, beginning at the minimum. Please express your ranking as an ordered list of the labels.
5, 1, 2, 4, 3

A: CC1(C)Cc2c(sc(NC(=O)c3cc(C(F)(F)F)[nH]n3)c2C(N)=O)C(C)(C)O1
B: CC(C)CC(O)C(=O)Nc1sc2c(c1C(N)=O)CC(C)(C)OC2(C)C (centres unmarked)
C: CC(C)C(O)C(=O)Nc1sc2c(c1C(N)=O)CC(C)(C)OC2(C)C (single isomer, unassigned) [Compound 52]
D: COCc1c[nH]nc1C(=O)Nc1sc2c(c1C(N)=O)CC(C)(C)OC2(C)C
E: CC1(C)Cc2c(sc(NC(=O)C3(CO)CCC3)c2C(N)=O)C(C)(C)O1
Order the entries by their reported EC50, beginning at the minimum. Please express your ranking as an ordered list of the labels.
C, B, A, D, E
(C: 0.0114 µM, B: 0.0244 µM, A: 0.158 µM, D: 0.435 µM, E: 2.9 µM)

I: CC1(C)Cc2c(sc(NC(=O)c3ccn[nH]3)c2C(N)=O)C(C)(C)O1
II: CCCc1c[nH]nc1C(=O)Nc1sc2c(c1C(N)=O)CC(C)(C)OC2(C)C
III: COCc1[nH]nc(C(=O)Nc2sc3c(c2C(N)=O)CC(C)(C)OC3(C)C)c1Cl
Order the entries by their reported EC50, beginning at the minimum. Please express your ranking as an ordered list of the labels.
III, II, I
(III: 0.0763 µM, II: 0.116 µM, I: 0.166 µM)

Every entry's value here was drawn from patent US9351955B2.
